Target: Peroxisome proliferator-activated receptor gamma (Homo sapiens) (UniProt P37231)
Sequence (P37231 whole entry, looked up): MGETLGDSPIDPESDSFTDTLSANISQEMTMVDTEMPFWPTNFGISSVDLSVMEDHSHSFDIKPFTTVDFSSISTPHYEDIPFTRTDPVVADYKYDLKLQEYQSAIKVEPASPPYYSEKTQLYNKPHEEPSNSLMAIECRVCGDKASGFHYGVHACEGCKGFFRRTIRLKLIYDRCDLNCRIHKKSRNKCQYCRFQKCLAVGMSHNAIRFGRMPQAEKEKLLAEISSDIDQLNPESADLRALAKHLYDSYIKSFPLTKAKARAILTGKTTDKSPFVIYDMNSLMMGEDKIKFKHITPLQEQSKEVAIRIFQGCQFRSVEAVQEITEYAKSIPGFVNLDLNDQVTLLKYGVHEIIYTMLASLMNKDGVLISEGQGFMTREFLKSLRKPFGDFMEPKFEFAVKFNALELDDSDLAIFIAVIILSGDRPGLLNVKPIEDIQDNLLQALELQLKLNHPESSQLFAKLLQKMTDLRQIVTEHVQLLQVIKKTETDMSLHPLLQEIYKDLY
Experiment: compounds enhancing SRC-2 coactivator binding to PPARgamma – biochemical, HTS, primary screen (AID 1032)
Details: PPARgamma LBD-SRC-2 recruitment, at 8 µM
Among all 200,000 compounds or so, about 670 (0.34%) were called active. No stated cut-off is given here; in the data, active means activation above about 22%; inactive means the rest. Shown is part of a subset that was picked to be rich in actives.
Can you answer with just one of these options? y (active), n (inactive)

## Task Field: outcome | Entry: O=C(Cc1ccccc1[N+](=O)[O-])N1CCN(Cc2ccc3c(c2)OCO3)CC1
## Result n

## Task // outcome(item) with item = Cc1ccsc1C(=O)C1CCCN(Cc2ccc(O)cc2)C1 (stereo unspecified)
## Result n

## Task Check the results log: what was the call for COc1cc(-n2c(=S)[nH]c3ccc(C)cc3c2=O)c(Cl)cc1Cl ?
## Result y

## Task Per the assay record, what outcome was assigned to CCN1CCN(c2ccc([N+](=O)[O-])cc2C#N)CC1 ?
## Result n

## Task Fill in: this test's call for O=C1NC(=O)N(c2ccccc2)C(=O)/C1=C/c1ccc([N+](=O)[O-])s1 is ___
## Result n

## Task Kindly provide the recorded test outcome for the following molecule: COc1ccc(CN2C(=O)NC(=O)/C(=C\c3ccc(OC)c(OC)c3OC)C2=O)cc1
## Result n

Values compiled from PubChem BioAssay AID1032.
